meta.source: the supplement of paper PMC10567573

B1: SFRS1 (parent)
chain: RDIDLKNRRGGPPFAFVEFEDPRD

# Variants of: B1
# ASSAY_NAME: protein stability index of a GFP-peptide fusion (GPS, HEK-293T) (PSI 1-6); higher = more stable;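 also: lentivirally expressed fusions sorted by FACS into six bins by GFP to DsRed ratio, PSI derived from sequencing read proportions per bin multiplied by bin number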
# CONDITION_CONTEXT: c terminus: a fixed tail appended
MEASUREMENT_LABEL: protein stability index
API note: the answer field is a bare number with no unit suffix.

| RESIDUE_CODES | MEASUREMENT_LABEL | TEST_VALUE |
| --- | --- | --- |
| RDIDLKNRRGGPPFAFVVFEDPRD [E18V] | protein stability index | 2.2 |
| RDIDLKNRRGGPPEAFVEFEDPRD [F14E] | protein stability index | 5.48 |
| RDIDLKNRRGGPPHAFVEFEDPRD [F14H] | protein stability index | 5.01 |
| RDIDLKNRRGGPPFAFVPFEDPRD [E18P] | protein stability index | 2.99 |
| RDIDLKNRRGGPPFAFVEFEDPYD [R23Y] | protein stability index | 3.19 |
| RDIDLKNRRGGPPGAFVEFEDPRD [F14G] | protein stability index | 4.92 |
| RDIDLKNRRGGPPFEFVEFEDPRD [A15E] | protein stability index | 5.13 |
| RDIDLKNRRFGPPFAFVEFEDPRD [G10F] | protein stability index | 3.9 |

Specify protein stability index for RDIDLKNRRGGPPFAFHEFEDPRD [V17H] and stop.
4.38

Specify protein stability index for RDIDLKNRRGGPPFAFVDFEDPRD [E18D] and stop.
3.22

Specify protein stability index for RDIDLKNRRRGPPFAFVEFEDPRD [G10R] and stop.
2.96
